- targetSystem: CDK5/CDK5R1 (Homo sapiens)
- Sequence (Q00535 whole entry): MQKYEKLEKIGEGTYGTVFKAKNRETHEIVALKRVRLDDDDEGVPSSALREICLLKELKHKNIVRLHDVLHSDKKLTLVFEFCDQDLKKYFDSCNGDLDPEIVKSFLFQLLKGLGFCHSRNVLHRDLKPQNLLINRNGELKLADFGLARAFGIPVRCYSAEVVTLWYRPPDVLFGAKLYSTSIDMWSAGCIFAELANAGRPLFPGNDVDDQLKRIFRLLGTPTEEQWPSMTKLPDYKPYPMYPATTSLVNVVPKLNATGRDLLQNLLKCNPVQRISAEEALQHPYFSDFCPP
- Sequence (Q15078 whole entry partner): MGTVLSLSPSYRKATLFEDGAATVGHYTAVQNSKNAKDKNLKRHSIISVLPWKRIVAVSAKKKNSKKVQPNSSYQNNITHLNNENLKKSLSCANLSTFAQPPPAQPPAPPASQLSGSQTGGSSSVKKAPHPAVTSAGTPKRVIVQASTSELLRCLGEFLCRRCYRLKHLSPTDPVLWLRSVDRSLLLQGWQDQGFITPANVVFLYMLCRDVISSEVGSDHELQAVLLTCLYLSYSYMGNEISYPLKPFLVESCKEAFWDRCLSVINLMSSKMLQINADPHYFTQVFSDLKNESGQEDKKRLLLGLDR
- measurementDescription: NanoBRET live-cell target engagement, CDK5-NanoLuc/CDK5R1 in HEK-293
- Type: binding
- measurementSetup: 10µM; average of experiments; read-out: CDK5/CDK5R1 Inhibition at 10µM (%)
quantity: inhibition at 10 µM (%)

[
  {
    "chemicalString": "CN1CCN(c2ccc(Nc3ncc4cc5n(c4n3)C3(CCCCC3)CNC5=O)nc2)CC1",
    "quantity": "inhibition at 10 µM",
    "unitName": "%",
    "measured": -10.2
  },
  {
    "chemicalString": "CN1C/C=C/CCOc2cccc(c2)-c2ccnc(n2)Nc2cccc(c2)C1",
    "quantity": "inhibition at 10 µM",
    "unitName": "%",
    "measured": 93.3
  },
  {
    "chemicalString": "COCCN1CCN(Cc2ccc(-c3n[nH]c4c3C(=O)c3c(NC(=O)NN5CCOCC5)cccc3-4)cc2)CC1",
    "quantity": "inhibition at 10 µM",
    "unitName": "%",
    "measured": 84.4
  },
  {
    "chemicalString": "CN(C)C/C=C/C(=O)Nc1ccc(C(=O)N2CCC[C@@H](Nc3ncc(Cl)c(-c4c[nH]c5ccccc45)n3)C2)cc1",
    "quantity": "inhibition at 10 µM",
    "unitName": "%",
    "measured": 45.3
  }
]

----------
- targetSystem: CDK4/Cyclin D1 (Homo sapiens, UniProt P11802)
- Sequence (P11802 whole entry): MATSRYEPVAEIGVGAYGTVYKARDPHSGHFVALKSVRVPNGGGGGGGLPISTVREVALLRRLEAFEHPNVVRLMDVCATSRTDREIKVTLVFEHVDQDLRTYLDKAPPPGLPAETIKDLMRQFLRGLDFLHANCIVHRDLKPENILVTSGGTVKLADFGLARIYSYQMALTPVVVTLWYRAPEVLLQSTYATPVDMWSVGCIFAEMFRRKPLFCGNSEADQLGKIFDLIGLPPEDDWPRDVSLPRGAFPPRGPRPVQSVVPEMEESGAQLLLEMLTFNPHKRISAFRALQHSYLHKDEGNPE
- Sequence (P24385 whole entry partner): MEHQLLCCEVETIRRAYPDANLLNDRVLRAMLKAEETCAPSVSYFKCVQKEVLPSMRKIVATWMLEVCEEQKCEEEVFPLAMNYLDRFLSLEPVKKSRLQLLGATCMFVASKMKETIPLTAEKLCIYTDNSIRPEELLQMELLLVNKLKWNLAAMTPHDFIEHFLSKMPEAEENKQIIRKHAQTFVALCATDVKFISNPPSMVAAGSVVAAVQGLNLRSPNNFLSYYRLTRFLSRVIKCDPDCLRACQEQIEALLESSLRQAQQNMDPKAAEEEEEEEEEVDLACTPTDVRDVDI
- measurementDescription: NanoBRET live-cell target engagement, NanoLuc-CDK4/Cyclin D1 in HEK-293
- Type: binding
- measurementSetup: CDK4/D1; average; read-out: Inhibition at 10µM (%)

[
  {
    "molecule": "Cn1cc(-c2ccc(-c3cncc(Cl)c3N3CCC4(CCNC4=O)CC3)cc2)cn1",
    "inhibition at 10 µM (%)": 6.9
  },
  {
    "molecule": "CN1CCN(Cc2ccc(NC(=O)Nc3ccc(Oc4ccnc(N)n4)cc3)cc2C(F)(F)F)CC1",
    "inhibition at 10 µM (%)": 78.8
  },
  {
    "molecule": "CN1CC[C@H](c2c(O)cc(O)c3c(=O)cc(-c4ccccc4Cl)oc23)[C@H](O)C1",
    "inhibition at 10 µM (%)": 90.8
  },
  {
    "molecule": "CC(C)N1CCN(c2ccc(Nc3ncc4cc5n(c4n3)C3(CCCCC3)CNC5=O)nc2)CC1",
    "inhibition at 10 µM (%)": 93.4
  },
  {
    "molecule": "N#CCNC(=O)c1ccc(-c2ccnc(Nc3ccc(N4CCOCC4)cc3)n2)cc1",
    "inhibition at 10 µM (%)": 45.1
  },
  {
    "molecule": "CN1CCN(c2ccc(Nc3ncc4cc(C#N)c(=O)n(C5CCCC5)c4n3)cc2)CC1",
    "inhibition at 10 µM (%)": 95.1
  },
  {
    "molecule": "CC(C)c1cnn2c(NCc3ccccc3)cc(NC[C@H]3CCNC[C@@H]3O)nc12",
    "inhibition at 10 µM (%)": 18.1
  },
  {
    "molecule": "CC(C)(C)c1nc(-c2cccc(NS(=O)(=O)c3c(F)cccc3F)c2F)c(-c2ccnc(N)n2)s1",
    "inhibition at 10 µM (%)": 21.4
  },
  {
    "molecule": "COc1ccccc1-c1cc(Nc2cccc(CS(N)(=O)=O)c2)ncn1",
    "inhibition at 10 µM (%)": 44
  },
  {
    "molecule": "COc1ccc(F)cc1-c1cc(NC(=O)C2CCCNC2)ncc1Cl (stereo not drawn)",
    "inhibition at 10 µM (%)": 83.4
  },
  {
    "molecule": "CNC(=O)c1nn(C)c2c1C(C)(C)Cc1cnc(Nc3ccc(N4CCN(C)CC4)cc3)nc1-2",
    "inhibition at 10 µM (%)": 98.1
  },
  {
    "molecule": "COC1CN(C(=O)c2ccc3c(N)ncc(-c4ccc(-c5cnn(C)c5)cc4)c3n2)C1",
    "inhibition at 10 µM (%)": 12.4
  }
]

----------
- targetSystem: CDK3/Cyclin E1 (Homo sapiens, UniProt Q00526)
- Sequence (Q00526 whole entry): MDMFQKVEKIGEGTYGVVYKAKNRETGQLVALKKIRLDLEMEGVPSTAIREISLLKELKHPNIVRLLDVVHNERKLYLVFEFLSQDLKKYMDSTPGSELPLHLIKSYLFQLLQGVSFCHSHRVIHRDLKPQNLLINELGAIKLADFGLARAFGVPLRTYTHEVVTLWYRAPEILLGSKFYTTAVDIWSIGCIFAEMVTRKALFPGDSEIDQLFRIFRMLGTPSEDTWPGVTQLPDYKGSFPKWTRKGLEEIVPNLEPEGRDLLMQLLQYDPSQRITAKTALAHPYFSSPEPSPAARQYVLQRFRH
- Sequence (P24864 whole entry partner): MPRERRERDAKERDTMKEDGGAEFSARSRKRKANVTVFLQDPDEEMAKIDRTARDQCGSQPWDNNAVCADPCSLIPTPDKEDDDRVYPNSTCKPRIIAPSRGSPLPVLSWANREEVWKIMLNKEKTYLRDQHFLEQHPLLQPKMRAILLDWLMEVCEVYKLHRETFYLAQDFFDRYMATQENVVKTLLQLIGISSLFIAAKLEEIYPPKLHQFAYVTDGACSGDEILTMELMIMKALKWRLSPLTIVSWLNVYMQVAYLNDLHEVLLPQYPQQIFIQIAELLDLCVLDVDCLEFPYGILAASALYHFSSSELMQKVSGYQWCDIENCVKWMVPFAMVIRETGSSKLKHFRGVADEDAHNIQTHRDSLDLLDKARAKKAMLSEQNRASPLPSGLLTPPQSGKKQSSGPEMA
- measurementDescription: NanoBRET live-cell target engagement, CDK3-NanoLuc/Cyclin E1 in HEK-293
- Format: binding
- measurementSetup: CDK3/E1; experiment 1
Reported Inhibition at 10µM (%) values for the following compounds.

[
  {
    "compound": "CN1CCC(c2c(O)cc(O)c3c(=O)cc(-c4ccccc4Cl)oc23)C1CO (stereo not drawn) [P276-00]",
    "Inhibition at 10µM (%)": 52.6
  },
  {
    "compound": "CCn1cnc2c(Nc3cccc(Cl)c3)nc(N[C@@H]3CCCC[C@@H]3N)nc21 [CGP74514A]",
    "Inhibition at 10µM (%)": 92.6
  },
  {
    "compound": "CC(C)c1c2cc(-c3ccnc(N[C@H]4CC[C@H](NC5CCOCC5)CC4)n3)ccc2nn1C [LY2857785]",
    "Inhibition at 10µM (%)": 89.3
  },
  {
    "compound": "CC(C)c1cnn2c(NCc3ccccc3-n3cccn3)nc(OC3CCCNC3)nc12 (stereo not drawn) [LDC4297]",
    "Inhibition at 10µM (%)": 89.3
  },
  {
    "compound": "CNc1nc(C)c(-c2nc(Nc3cccc(S(N)(=O)=O)c3)ncc2F)s1 [CDKI-73]",
    "Inhibition at 10µM (%)": 94.8
  },
  {
    "compound": "CS(=O)(=O)N1CCC(NC(=O)c2[nH]ncc2NC(=O)c2c(Cl)cccc2Cl)CC1 [NVP-LCQ195]",
    "Inhibition at 10µM (%)": 98.1
  }
]

----------
- targetSystem: CDK11A/Cyclin L2 (Homo sapiens)
- Sequence (Q9UQ88 whole entry): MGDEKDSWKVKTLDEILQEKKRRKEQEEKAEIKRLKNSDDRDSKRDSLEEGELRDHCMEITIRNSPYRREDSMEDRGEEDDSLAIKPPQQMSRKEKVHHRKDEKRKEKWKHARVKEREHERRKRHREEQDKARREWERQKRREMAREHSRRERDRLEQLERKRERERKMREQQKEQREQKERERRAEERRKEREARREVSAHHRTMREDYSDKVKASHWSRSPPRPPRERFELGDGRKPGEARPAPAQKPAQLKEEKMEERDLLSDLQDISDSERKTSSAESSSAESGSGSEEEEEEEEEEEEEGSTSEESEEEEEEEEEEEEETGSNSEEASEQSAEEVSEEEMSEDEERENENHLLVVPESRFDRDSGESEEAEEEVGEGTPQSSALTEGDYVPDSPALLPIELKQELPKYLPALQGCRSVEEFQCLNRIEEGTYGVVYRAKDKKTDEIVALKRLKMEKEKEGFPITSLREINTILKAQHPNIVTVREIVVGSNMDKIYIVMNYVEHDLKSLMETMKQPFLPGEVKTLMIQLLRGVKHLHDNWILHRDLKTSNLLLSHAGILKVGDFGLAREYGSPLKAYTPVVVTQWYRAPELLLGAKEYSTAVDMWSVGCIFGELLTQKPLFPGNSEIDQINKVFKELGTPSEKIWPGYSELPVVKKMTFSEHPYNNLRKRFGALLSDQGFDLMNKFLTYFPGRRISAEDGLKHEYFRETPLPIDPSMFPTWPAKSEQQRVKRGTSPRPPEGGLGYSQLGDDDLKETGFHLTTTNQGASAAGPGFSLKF
- measurementDescription: NanoBRET live-cell target engagement, CDK11A-NanoLuc/Cyclin L2 in HEK-293
- Assay type: binding
- measurementSetup: independent experiment 2; read-out: CDK11a/L2 IC50
pIC50: −log10 of the molar value.
Parameter: pIC50. Scope: all listed entries.

[
  {
    "chemicalString": "CN1C/C=C/CCOc2cccc(c2)-c2ccnc(n2)Nc2cccc(c2)C1",
    "pIC50": 6.74
  },
  {
    "chemicalString": "CN(C)C/C=C/C(=O)Nc1ccc(C(=O)Nc2cccc(Nc3ncc(Cl)c(-c4c[nH]c5ccccc45)n3)c2)cc1",
    "pIC50": 6.64
  }
]

----------
- targetSystem: CDK7 (Homo sapiens)
- Sequence (P50613 whole entry): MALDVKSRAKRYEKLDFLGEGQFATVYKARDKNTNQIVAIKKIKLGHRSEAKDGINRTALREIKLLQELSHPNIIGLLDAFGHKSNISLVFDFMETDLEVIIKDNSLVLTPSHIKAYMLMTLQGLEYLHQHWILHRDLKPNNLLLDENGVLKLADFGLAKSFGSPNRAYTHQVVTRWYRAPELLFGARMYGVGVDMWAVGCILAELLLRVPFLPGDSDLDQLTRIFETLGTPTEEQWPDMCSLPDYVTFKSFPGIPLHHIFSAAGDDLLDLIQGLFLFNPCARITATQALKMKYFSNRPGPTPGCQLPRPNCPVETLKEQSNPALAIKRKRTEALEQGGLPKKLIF
- measurementDescription: NanoBRET live-cell target engagement, NanoLuc-CDK7 in HEK-293
- Format: binding
- measurementSetup: 10µM; average of experiments; read-out: CDK7 Inhibition at 10µM (%)
quantity: inhibition at 10 µM (%)

[
  {
    "compound": "CC(C)CC(=O)Nc1[nH]nc2c1CN(C(=O)C1CCN(C)CC1)C2(C)C [PHA-793887]",
    "unitName": "%",
    "measured": 94.1
  },
  {
    "compound": "COCCN1CCN(Cc2ccc(-c3n[nH]c4c3C(=O)c3c(NC(=O)NN5CCOCC5)cccc3-4)cc2)CC1 [RGB286638]",
    "unitName": "%",
    "measured": 93.9
  },
  {
    "compound": "CC(C)[C@H](CO)Nc1nc(Nc2ccc(C(=O)O)c(Cl)c2)c2ncn(C(C)C)c2n1 [Purvalanol B]",
    "unitName": "%",
    "measured": -0.0779
  },
  {
    "compound": "CN1CCN(c2ccc(Nc3ncc4cc5n(c4n3)C3(CCCCC3)CNC5=O)nc2)CC1 [Trilaciclib]",
    "unitName": "%",
    "measured": 8.6
  },
  {
    "compound": "CN(C)C(=O)c1cc2cnc(Nc3ccc(N4CCNCC4)cn3)nc2n1C1CCCC1 [Ribociclib]",
    "unitName": "%",
    "measured": 14.6
  },
  {
    "compound": "CN1C/C=C/CCOc2cccc(c2)-c2ccnc(n2)Nc2cccc(c2)C1 [SB1317]",
    "unitName": "%",
    "measured": 96.4
  }
]

----------
- targetSystem: CDK20/Cyclin H (Homo sapiens)
- Sequence (Q8IZL9 whole entry): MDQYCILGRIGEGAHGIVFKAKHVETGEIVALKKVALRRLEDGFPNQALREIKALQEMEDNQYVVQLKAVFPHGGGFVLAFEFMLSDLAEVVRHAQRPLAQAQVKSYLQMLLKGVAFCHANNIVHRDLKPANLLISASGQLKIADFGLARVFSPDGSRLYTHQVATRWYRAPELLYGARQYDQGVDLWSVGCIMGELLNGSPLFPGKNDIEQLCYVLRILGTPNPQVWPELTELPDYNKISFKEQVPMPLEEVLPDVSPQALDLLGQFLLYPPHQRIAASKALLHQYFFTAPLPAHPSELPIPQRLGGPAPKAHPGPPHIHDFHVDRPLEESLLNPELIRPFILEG
- Sequence (P51946 whole entry partner): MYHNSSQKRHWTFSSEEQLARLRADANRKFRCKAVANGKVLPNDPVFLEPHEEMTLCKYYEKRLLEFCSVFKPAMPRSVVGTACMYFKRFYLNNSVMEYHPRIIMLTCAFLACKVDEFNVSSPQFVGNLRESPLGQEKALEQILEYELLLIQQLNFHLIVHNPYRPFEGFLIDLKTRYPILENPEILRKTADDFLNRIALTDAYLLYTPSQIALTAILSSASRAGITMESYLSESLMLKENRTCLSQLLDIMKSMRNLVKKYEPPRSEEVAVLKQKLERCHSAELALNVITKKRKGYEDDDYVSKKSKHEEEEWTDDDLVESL
- measurementDescription: NanoBRET live-cell target engagement, NanoLuc-CDK20/Cyclin H in HEK-293
- Type: binding
- measurementSetup: CDK20/H; 10µM

[
  {
    "compound": "CCC(CO)Nc1nc(Nc2cccc(-c3ccccn3)c2)c2ncn(C(C)C)c2n1.Cl.O [(R) - DRF053]",
    "Inhibition at 10µM (%) Replicate 1": 16.2
  },
  {
    "compound": "O=C(Nc1c[nH]nc1-c1ccccn1)c1nn(C2CCNCC2)cc1Cl",
    "Inhibition at 10µM (%) Replicate 1": 14.8
  },
  {
    "compound": "CC(C)c1cnn2c(NCc3ccccc3)cc(N[C@@H](CO)[C@H](O)CO)nc12",
    "Inhibition at 10µM (%) Replicate 1": 31.5
  },
  {
    "compound": "CNC1CCN(C(=O)c2ccc(Nc3ncc(F)c(-c4cnc(C)n4C(C)C)n3)cc2)C1 (stereo not shown)",
    "Inhibition at 10µM (%) Replicate 1": 68.9
  }
]
